target_entity: Farnesyl-protein transferase from bovine brain (partially purified enzyme preparation) (Bos taurus, UniProt P29702+P49355)
Construct: the indicated compounds were incubated with this partially purified enzyme preparation; from tissue; host or cells: bovine brain; chromatographed on DEAE-Sephacel and N-octyl agarose
protocol: Competition of Ras farnesylation by polyisoprenoids and peptides (Hepes-buffered assay, immunoprecipitation and nitrocellulose filtration)
Assay type: biochemical
condition_details: [Leu68]RAS1(term.)CVLS at 1 µM, 0.5 µM [3H]FPP, 10 min at 24° C; average of 2-5 determinations; >> = no competition at the highest concentration tested
property: IC50 (µM)
Your answer is read as µM, so omit the unit and give the number.

[ask] State the recorded IC50 for this entry: Cys-Val-Leu-Ser (CVLS; printed: Cys-Val-Leu-Ser)
[reply] 2.2
